Anti-CD28 Fab signal in the presence of CD28: recorded values
experimentalTarget: Anti-CD28 Fab (SEQ ID NOs: 202, 203)
Sequence (VH, as listed by the source, chain 1 of 2): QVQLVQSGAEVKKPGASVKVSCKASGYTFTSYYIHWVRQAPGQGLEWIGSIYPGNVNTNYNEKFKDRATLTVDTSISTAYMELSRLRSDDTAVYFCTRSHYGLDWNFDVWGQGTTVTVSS
Sequence (VL, as listed by the source, chain 2 of 2): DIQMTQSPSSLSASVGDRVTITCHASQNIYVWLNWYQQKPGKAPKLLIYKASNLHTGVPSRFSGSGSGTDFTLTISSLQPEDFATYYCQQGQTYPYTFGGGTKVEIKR
testProtocol: phage binding ELISA on captured Fab, competitor CD28 antigen;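 further: clonal phage supernatant binding in wells preincubated with CD28 antigen in blocking buffer, detected by HRP-conjugated anti-M13 antibody ELISA, compared with blocking buffer alone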
assayMetric: Anti-CD28 Fab signal in the presence of CD28

>>> reportedmeasurement("YCDGHHLEYIDKCL [Phage-838]")
0.06
>>> reportedmeasurement("YCAGHTQEYMLKCL [Phage-824]")
0.06
>>> reportedmeasurement("YCSGHVPEYMEKCL [Phage-787]")
0.06
>>> reportedmeasurement("YCDGHWPGYLWKCL [Phage-883]")
0.06
>>> reportedmeasurement("YCVGHLPLYMPNCL [Phage-842]")
0.11
>>> reportedmeasurement("YCEGHAREYMDKCL [Phage-820]")
0.07
>>> reportedmeasurement("YCAGHTPEYLDKCL [Phage-784]")
0.06
>>> reportedmeasurement("YCQGHSVQYMAKCL [Phage-825]")
0.06
>>> reportedmeasurement("YCEGHAQMYMLKCL [Phage-851]")
0.06
